Record type: AC50 measurement. Applies to: Cytochrome P450 2D6 (Homo sapiens, UniProt P10635)

| MOLECULE | AC50 |
| --- | --- |
| O=C1Nc2ccccc2C1=Nc1sc2c(c1C(=O)NCCc1ccccc1)CCCC2 | 4.47 µM (inconclusive) |
| CC(=O)C1=C(O)[C@@H]2[C@@H]3c4c[nH]c5cccc(c45)C[C@@H]3C(C)(C)N2C1=O | 39.8 µM (inconclusive) |
| N=C(NOC(=O)Cc1ccc(Cl)cc1)c1cccnc1 | 6.31 µM (inconclusive) |
| CCOc1c2ccc(C(=O)NCc3ccc4c(c3)OCO4)cc2nn1CC | 15.8 µM (inconclusive) |
| CC12CC(NC(=O)N1c1cccc(C(=O)NCc3ccccc3)c1)c1ccccc1O2 (configuration not stated) | 28.2 µM (inconclusive) |
| Cc1nn(Cc2ccc([N+](=O)[O-])cc2)c(=O)n1-c1cccc(F)c1 | 25.1 µM (inconclusive) |
| N#Cc1cccc(-c2ccc3ncnc(NCc4ccccc4)c3c2)c1 | 10 µM (inconclusive) |
| NC(=O)CNC(=O)[C@@H]1CC2(CC(c3cccc([N+](=O)[O-])c3)=NO2)CN1C(=O)c1ccccc1 (some centres not stated) | 31.6 µM (inconclusive) |
| CCc1cc2c(c(CC)n1)CCC(=O)N2Cc1ccc(-c2ccccc2-c2nnn[nH]2)cc1 | 10 µM (inconclusive) |
| Nc1nc(Cl)cc(N2CCOCC2)n1 | 39.8 µM (inconclusive) |
| Cc1cc([N+](=O)[O-])nn1CC(=O)NN=C(S)Nc1ccc(F)cc1 | 0.00562 µM (inconclusive) |
| CCN(CC)C1=NC(=[N+](CC)CC)c2ccccc21 | 14.1 µM (inconclusive) |
| CNc1ncncc1-c1ccccc1C | 31.6 µM (inconclusive) |
| O=C(OCc1ccccn1)c1ccc(COc2ccccc2Cl)o1 | 17.8 µM (inconclusive) |
| Cc1onc(-c2c(Cl)cccc2Cl)c1C(=O)N1CCc2ccccc2C1 | 22.4 µM (inconclusive) |
| COc1ccc(CNC(=O)Cc2csc(Nc3nc(S)nc4ccccc34)n2)cc1 | 0.447 µM (inconclusive) |
| Cc1noc(C)c1-c1ccc2ncnc(NCCN3CCOCC3)c2c1 | 31.6 µM (inconclusive) |

###

MEASUREMENT_DESCRIPTION: Late stage assay provider results from the probe development effort to identify inhibitors of Protein Phosphatase Methylesterase 1 (PME-1): luminescence-based […] dose response assay to determine cytotoxicity of inhibitor compounds. [Related pubchem assays (depositor defined):AID2130, AID2143, AID2171, AID2174, AID2177, AID2232, AID2233, AID2291, AID2363, AID2365, AID2366, AID2368, AID2369, AID2371, AID463124, AID463130, AID463131, AID463132, AID463146, AID463149] Panel member name: Serum-free Media
Format: toxicity
Active and inactive are the calls of the source.
QUANTITY_MEASURED: CC50

| MOLECULE | MEAS_VALUE |
| --- | --- |
| COC(=O)N1C(=O)[C@](c2ccccc2)(C2CCCCC2)N1C(=O)OC | > 10 µM (inactive) |

###

TARGET_OR_TEST_SYSTEM: Prothrombin (Homo sapiens)
MEASUREMENT_DESCRIPTION: Thrombin 1536 HTS Dose Response Confirmation. [Related pubchem assays: 1046 (Thrombin 1536 HTS; hits were confirmed in this assay)]
Type: functional
Activity calls are given as the source filed them.
Listed here are compounds together with their documented IC50.
QUANTITY_MEASURED: IC50

| MOLECULE | MEAS_VALUE |
| --- | --- |
| Cn1c(Cl)nc2c1c(=O)n(Cc1cccc(Br)c1)c(=O)n2C | > 50 µM (not active) |
| CCC(=O)Oc1ccc2c(C)c(Cl)c(=O)oc2c1 | > 50 µM (not active) |
| COc1ccc2ncc(OC(C)=O)cc2c1 | 3.24 µM (active) |
| CC(=O)Nc1ccc(S(=O)(=O)n2cnc3cc(C)c(C)cc32)cc1 | > 50 µM (not active) |

###

TARGET_OR_TEST_SYSTEM: Sentrin-specific protease 6 (Homo sapiens, UniProt Q9GZR1);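 further: Luminescence-based dose-response confirmatory assay of SENP6 inhibition, following up an ultra-high-throughput screen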
Sequence (Q9GZR1 whole entry): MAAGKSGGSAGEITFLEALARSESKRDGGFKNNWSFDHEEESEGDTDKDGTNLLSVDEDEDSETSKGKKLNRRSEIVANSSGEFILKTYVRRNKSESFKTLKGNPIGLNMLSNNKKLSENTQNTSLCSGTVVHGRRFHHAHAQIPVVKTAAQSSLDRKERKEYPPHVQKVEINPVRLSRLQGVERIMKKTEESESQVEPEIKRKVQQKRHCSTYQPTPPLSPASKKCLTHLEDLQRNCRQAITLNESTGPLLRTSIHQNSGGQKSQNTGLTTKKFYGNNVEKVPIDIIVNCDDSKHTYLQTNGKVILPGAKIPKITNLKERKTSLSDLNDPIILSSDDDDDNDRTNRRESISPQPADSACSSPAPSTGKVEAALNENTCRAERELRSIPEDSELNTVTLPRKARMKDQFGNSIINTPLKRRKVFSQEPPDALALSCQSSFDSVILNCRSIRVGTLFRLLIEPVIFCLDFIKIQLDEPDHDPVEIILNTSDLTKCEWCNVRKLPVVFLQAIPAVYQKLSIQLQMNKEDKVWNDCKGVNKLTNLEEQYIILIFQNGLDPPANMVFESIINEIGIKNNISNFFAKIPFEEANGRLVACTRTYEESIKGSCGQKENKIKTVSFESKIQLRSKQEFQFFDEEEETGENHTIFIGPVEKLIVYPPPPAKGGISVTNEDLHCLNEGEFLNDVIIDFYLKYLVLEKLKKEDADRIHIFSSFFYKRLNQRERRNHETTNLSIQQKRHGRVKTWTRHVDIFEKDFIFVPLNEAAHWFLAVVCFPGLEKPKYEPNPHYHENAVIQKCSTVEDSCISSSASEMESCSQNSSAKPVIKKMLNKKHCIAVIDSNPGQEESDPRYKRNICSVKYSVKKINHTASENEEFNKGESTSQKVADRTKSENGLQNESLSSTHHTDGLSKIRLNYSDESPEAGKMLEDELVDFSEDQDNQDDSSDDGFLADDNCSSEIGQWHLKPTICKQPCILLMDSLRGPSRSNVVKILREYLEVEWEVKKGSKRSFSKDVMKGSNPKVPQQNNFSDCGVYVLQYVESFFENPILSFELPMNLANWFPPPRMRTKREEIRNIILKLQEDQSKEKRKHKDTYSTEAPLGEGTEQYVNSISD
Assay type: functional
Active and inactive are the calls of the source.
Outcome codes: 1 (yes) for active, 0 (no) for inactive

| MOLECULE | GROUP_LABEL |
| --- | --- |
| O=C(O)c1cccc(-c2nnn(Cc3ccccc3Cl)n2)c1 | 0 (no) |
| Cc1ccc(C(=O)COC(=O)c2cccc(NC(=O)c3ccc([N+](=O)[O-])cc3[N+](=O)[O-])c2)cc1 | 1 (yes) |
| Cc1c(Cl)cnc(NC(=O)COC(=O)c2ccc([N+](=O)[O-])s2)c1Cl | 1 (yes) |
| CCOC(=O)c1ccccc1N/C=C/C(=O)c1ccccc1 | 1 (yes) |

###

TARGET_OR_TEST_SYSTEM: Luciferin 4-monooxygenase (Photinus pyralis, UniProt P08659)
Sequence (P08659 whole entry): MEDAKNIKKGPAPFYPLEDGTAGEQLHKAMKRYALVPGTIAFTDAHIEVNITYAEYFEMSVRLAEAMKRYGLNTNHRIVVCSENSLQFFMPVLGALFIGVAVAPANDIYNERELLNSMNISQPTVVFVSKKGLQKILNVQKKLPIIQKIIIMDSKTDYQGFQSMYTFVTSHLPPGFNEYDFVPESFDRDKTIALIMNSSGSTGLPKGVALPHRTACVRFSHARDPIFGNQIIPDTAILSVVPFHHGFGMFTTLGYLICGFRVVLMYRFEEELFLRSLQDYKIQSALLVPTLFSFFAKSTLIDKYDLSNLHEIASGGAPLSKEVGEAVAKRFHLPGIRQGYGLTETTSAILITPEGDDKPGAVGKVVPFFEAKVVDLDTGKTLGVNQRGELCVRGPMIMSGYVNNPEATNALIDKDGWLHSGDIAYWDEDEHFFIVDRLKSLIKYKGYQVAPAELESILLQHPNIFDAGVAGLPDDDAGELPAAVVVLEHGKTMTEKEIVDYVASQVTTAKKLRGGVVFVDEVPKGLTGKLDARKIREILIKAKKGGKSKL
MEASUREMENT_DESCRIPTION: inhibition of purified Photinus pyralis luciferase – biochemical, luminescence, dose response (AID 1891)
The source made the active and inactive calls.
Each entry below carries its reported EC50.
QUANTITY_MEASURED: EC50

| MOLECULE | MEAS_VALUE |
| --- | --- |
| O=C(NCc1ccncc1)/C(=C/c1cccc([N+](=O)[O-])c1)NC(=O)c1ccccc1 | > 112 µM (not active) |
| Cc1ccc(NC(=O)Nc2cccc(Cl)c2)c(C(=O)O)c1 | 17.2 µM (active) |
| Cc1nc2sccn2c(=O)c1S(=O)(=O)N1CCN(c2ccc(F)cc2)CC1 | > 112 µM (not active) |
| Cc1onc(-c2c(Cl)cccc2Cl)c1C(=O)N1CCc2ccccc2C1 | > 112 µM (not active) |
| CCCc1nc2sc3c(O)ncnc3c2c2c1CCCC2 | > 112 µM (not active) |
| CSCCC1NC(=O)N(CC(=O)Nc2ccc(Br)cc2Br)C1=O (configuration not stated) | > 112 µM (not active) |
| c1ccc(-c2nc3c(ccc4ccccc43)[nH]2)nc1 | 4.22 µM (active) |
| O=S(=O)(NCCc1csc(-c2cccnc2)n1)c1ccc2c(c1)OCCO2 | > 112 µM (not active) |
| CCCCN(C(=O)C1CC(=O)N(c2ccc(OC)cc2OC)C1)c1c(N)n(CC(C)C)c(=O)[nH]c1=O (configuration not stated) | > 112 µM (not active) |
| COc1ccc(NC(=O)c2cc(S(=O)(=O)N3CCc4ccccc43)cn2C)cc1 | > 112 µM (not active) |
| Cc1nc2ccccc2n1/C(=N/S(=O)(=O)c1ccc(Br)cc1)c1ccccc1 | > 112 µM (not active) |
| O=c1c2ccccc2nc(/C=C/c2ccc(F)cc2)n1-c1ccccn1 | > 112 µM (not active) |
